These data points were gathered from ChEMBL document CHEMBL1154001.

- Method Description: Volume of distribution at steady state in cynomolgus monkey at 2 mg/kg
- Type: ADME, organism-based, Macaca fascicularis
- Parameters: dose 2 mg/kg
- Reported Conditions: in vivo, read-out: Vdss
Parameter: Vd (L/kg)
Please state the figure in L/kg; there is no need to write the unit.

Quick one: Vd for `CC(C)c1nccc2c1c(Sc1ccc(Cl)c(Cl)c1)c1n2CC[C@@H]1CC(=O)O` ?
1.2

---

- Method Description: Plasma clearance in squirrel monkey at 5 mg/kg
- Type: ADME, organism-based
- Set-up: dose 5 mg/kg
- Reported Conditions: saimiri
Parameter: clearance (mL/min/kg)
Please state the figure in mL/min/kg; there is no need to write the unit.

Quick one: clearance for `CC(C)c1nccc2c1c(Sc1ccc(Cl)c(Cl)c1)c1n2CC[C@@H]1CC(=O)O` ?
7.3

---

- Method Description: Volume of distribution at steady state in rat at 10 mg/kg
- Type: ADME, organism-based
- Set-up: dose 10 mg/kg
- Reported Conditions: in vivo, read-out: Vdss
Parameter: Vd (L/kg)
Please state the figure in L/kg; there is no need to write the unit.

Quick one: Vd for `CC(C)c1nccc2c1c(Sc1ccc(Cl)c(Cl)c1)c1n2CC[C@@H]1CC(=O)O` ?
0.47

---

- Method Description: Bioavailability in rat
- Format: ADME, organism-based
- Reported Conditions: in vivo
Parameter: bioavailability (%)
Please state the figure in %; there is no need to write the unit.

Quick one: bioavailability for `CC(C)c1nccc2c1c(Sc1ccc(Cl)c(Cl)c1)c1n2CC[C@@H]1CC(=O)O` ?
53

---

- Method Description: Volume of distribution at steady state in Beagle dog at 2 mg/kg
- Assay type: ADME, organism-based, Canis lupus familiaris
- Set-up: dose 2 mg/kg
- Reported Conditions: in vivo, read-out: Vdss
Parameter: Vd (L/kg)
Please state the figure in L/kg; there is no need to write the unit.

Quick one: Vd for `CC(C)c1nccc2c1c(Sc1ccc(Cl)c(Cl)c1)c1n2CC[C@@H]1CC(=O)O` ?
1.2

---

- Method Description: Plasma clearance in Beagle dog at 2 mg/kg
- Type: ADME, organism-based, Canis lupus familiaris
- Set-up: dose 2 mg/kg
Parameter: clearance (mL/min/kg)
Please state the figure in mL/min/kg; there is no need to write the unit.

Quick one: clearance for `CC(C)c1nccc2c1c(Sc1ccc(Cl)c(Cl)c1)c1n2CC[C@@H]1CC(=O)O` ?
4

---

- Method Description: Volume of distribution at steady state in squirrel monkey at 5 mg/kg
- Format: ADME, organism-based
- Parameters: dose 5 mg/kg
- Reported Conditions: saimiri, in vivo, read-out: Vdss
Parameter: Vd (L/kg)
Please state the figure in L/kg; there is no need to write the unit.

Quick one: Vd for `CC(C)c1nccc2c1c(Sc1ccc(Cl)c(Cl)c1)c1n2CC[C@@H]1CC(=O)O` ?
0.78
